Organism: Homo sapiens
Assay: Inhibition of growth of human keratinocytes
Assay type: functional
ASSAY READOUT: IC50 (nM)
A number alone suffices; assume nM.

| MOLECULE | IC50 / nM |
| --- | --- |
| C=C1/C(=C\C=C2/CCC[C@]3(C)[C@@H]([C@H](C)/C=C/[C@@H](O)C4CC4)CC[C@@H]23)C[C@@H](O)C[C@@H]1O [CALCIPOTRIENE] | 32 |
| C=C1/C(=C\C=C2/CCC[C@]3(C)C([C@@H](C)CSc4ccc(C(C)(C)O)cc4)CC[C@@H]23)C[C@@H](O)C[C@@H]1O (stereo partly drawn) | 0.28 |

Please turn your attention to the following entry.
What the record says about C=C1/C(=C\C=C2/CCC[C@]3(C)C([C@@H](C)COc4ccc(C(C)(C)O)cc4)CC[C@@H]23)C[C@@H](O)C[C@@H]1O (stereo partly drawn) : IC50 is 0.11

###

Experiment: Competitive inhibition of ATP binding
ASSAY READOUT: pIC50
Remember, pIC50 is on a log scale: it is -log10 of the molar concentration.

What the record says about "COc1cc2ncnc(Nc3cccc(Br)c3)c2cc1OC" : pIC50 is 10.60

The measurements presented in this section are drawn from ChEMBL document CHEMBL1134331.
